Here the recorded cell viability is given for each entry.
Tested on: U2OS
ASSAY_METHOD_TEXT: cell viability relative to DMSO; higher = less toxic
TEST_CONDITIONS: 72 h; 1000 nM
# number only, unit % dropped from output

Query: What value of cell viability has been recorded for this entry: Cc1ccc(NC(=O)Nc2cc(C(F)(F)F)ccc2F)cc1Nc1ccc2c(c1)NC(=O)/C2=C\c1ccc[nH]1 [GNF-5837]
Reply: 98.2

* * *

Here the recorded drug sensitivity score is given for each entry.
System: HepG2
ASSAY_METHOD_TEXT: drug sensitivity score (DSS) for viability; higher = more toxic; extreme values may be limits of the assay
TEST_CONDITIONS: 72 h
// no unit, no text: just the number

Here is how some molecules turned out for drug sensitivity score.
molecule=O=C1N=C(NCc2cccs2)S/C1=C\c1ccc2ncccc2c1 target_entity=HepG2 quantity_name="drug sensitivity score" result_number=9.2
molecule=Cc1nc(NC(=O)N2CCC[C@H]2C(N)=O)sc1-c1ccnc(C(C)(C)C(F)(F)F)c1 target_entity=HepG2 quantity_name="drug sensitivity score" result_number=6.1
molecule=CO[C@H]1C[C@@H]2CC[C@@H](C)[C@@](O)(O2)C(=O)C(=O)N2CCCC[C@H]2C(=O)O[C@H]([C@H](C)C[C@@H]2CC[C@@H](O)[C@H](OC)C2)CC(=O)[C@H](C)/C=C(\C)[C@@H](O)[C@@H](OC)C(=O)[C@H](C)C[C@H](C)/C=C/C=C/C=C/1C target_entity=HepG2 quantity_name="drug sensitivity score" result_number=17.5

Query: Quick check: drug sensitivity score on HepG2, item COc1nc(C)nc(Cl)c1NC1=NCCN1 ?
Reply: 0

Query: Quick check: drug sensitivity score on HepG2, item C[N+]1(C)CCC(=C(c2ccccc2)c2ccccc2)CC1 ?
Reply: 0

Query: Quick check: drug sensitivity score on HepG2, item COc1ccccc1OCCNCC(O)COc1cccc2[nH]c3ccccc3c12 (stereo not drawn) ?
Reply: 0.1

The reported measurements were obtained from the supplement of paper PMC13380429.
